Data origin: paper PMC8429728

- measuredTarget: HIPK1 (Homo sapiens)
- Sequence (Q86Z02 whole entry): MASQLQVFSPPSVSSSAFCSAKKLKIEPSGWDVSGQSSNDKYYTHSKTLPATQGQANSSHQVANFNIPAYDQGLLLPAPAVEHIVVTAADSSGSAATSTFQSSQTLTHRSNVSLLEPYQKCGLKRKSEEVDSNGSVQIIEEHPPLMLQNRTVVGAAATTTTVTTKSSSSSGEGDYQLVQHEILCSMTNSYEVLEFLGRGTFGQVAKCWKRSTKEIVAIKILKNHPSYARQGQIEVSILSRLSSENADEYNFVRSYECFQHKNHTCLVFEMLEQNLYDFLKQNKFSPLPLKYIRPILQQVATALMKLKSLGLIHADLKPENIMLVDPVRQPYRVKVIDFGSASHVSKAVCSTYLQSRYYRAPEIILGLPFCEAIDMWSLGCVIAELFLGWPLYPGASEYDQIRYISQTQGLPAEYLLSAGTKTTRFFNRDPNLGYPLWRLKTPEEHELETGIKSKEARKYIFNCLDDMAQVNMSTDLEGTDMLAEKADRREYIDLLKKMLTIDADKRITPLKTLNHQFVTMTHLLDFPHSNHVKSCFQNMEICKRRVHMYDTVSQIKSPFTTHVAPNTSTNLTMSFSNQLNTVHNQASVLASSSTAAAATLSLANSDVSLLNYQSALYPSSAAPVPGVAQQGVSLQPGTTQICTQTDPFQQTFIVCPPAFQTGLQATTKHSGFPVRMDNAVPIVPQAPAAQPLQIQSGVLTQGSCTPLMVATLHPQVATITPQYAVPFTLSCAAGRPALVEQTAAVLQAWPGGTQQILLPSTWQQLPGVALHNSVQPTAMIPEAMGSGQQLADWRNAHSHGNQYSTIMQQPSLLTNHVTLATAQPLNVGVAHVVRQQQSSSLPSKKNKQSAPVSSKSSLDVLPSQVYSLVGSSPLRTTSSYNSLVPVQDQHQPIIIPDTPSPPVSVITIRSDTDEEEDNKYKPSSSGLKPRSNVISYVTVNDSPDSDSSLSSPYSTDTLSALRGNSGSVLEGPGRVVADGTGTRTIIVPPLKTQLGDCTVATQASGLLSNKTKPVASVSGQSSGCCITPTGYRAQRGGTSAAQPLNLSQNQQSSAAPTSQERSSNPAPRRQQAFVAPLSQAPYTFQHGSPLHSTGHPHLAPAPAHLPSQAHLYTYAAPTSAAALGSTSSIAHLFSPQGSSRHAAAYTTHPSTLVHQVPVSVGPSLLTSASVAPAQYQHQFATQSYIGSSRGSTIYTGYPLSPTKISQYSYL
measurementLabel: IC50 (µM)

Cn1cc(C2=C(c3cn(CCCSC(=N)N)c4ccccc34)C(=O)NC2=O)c2ccccc21 | 3.06

---

- measuredTarget: LOK/STK10 (Homo sapiens)
- Sequence (O94804 whole entry): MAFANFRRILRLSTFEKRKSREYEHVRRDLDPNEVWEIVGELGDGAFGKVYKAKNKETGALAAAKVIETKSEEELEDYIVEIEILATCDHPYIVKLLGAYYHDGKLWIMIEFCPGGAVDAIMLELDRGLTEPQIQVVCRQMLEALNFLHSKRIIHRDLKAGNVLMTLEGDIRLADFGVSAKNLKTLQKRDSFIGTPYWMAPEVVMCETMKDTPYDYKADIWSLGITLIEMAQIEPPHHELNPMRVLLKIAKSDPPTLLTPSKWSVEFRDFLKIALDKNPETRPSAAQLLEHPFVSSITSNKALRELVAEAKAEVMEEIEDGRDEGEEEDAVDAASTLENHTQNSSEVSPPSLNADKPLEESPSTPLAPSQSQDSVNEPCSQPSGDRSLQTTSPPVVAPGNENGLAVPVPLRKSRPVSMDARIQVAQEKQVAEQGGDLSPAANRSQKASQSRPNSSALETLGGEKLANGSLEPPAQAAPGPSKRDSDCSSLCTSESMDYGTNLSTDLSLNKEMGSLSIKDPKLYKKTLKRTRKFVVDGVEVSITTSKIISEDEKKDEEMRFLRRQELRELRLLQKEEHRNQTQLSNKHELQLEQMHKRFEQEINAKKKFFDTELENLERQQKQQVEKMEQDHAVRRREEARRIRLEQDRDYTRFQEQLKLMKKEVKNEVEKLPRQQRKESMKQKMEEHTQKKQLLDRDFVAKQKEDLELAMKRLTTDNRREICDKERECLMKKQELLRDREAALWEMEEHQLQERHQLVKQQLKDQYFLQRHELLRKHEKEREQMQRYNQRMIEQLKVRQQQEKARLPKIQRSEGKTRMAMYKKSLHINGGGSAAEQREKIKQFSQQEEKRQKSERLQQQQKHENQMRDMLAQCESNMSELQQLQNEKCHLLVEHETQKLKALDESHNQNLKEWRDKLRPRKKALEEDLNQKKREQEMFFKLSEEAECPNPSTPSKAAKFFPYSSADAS
- assayMethodText: biochemical
measurementLabel: IC50 (nM)

Cn1cc(C2=C(c3cn(CCCSC(=N)N)c4ccccc34)C(=O)NC2=O)c2ccccc21 [RO-31-8220] | 141

---

- measuredTarget: UniProt Q6IQ55
- Sequence (Q6IQ55 whole entry): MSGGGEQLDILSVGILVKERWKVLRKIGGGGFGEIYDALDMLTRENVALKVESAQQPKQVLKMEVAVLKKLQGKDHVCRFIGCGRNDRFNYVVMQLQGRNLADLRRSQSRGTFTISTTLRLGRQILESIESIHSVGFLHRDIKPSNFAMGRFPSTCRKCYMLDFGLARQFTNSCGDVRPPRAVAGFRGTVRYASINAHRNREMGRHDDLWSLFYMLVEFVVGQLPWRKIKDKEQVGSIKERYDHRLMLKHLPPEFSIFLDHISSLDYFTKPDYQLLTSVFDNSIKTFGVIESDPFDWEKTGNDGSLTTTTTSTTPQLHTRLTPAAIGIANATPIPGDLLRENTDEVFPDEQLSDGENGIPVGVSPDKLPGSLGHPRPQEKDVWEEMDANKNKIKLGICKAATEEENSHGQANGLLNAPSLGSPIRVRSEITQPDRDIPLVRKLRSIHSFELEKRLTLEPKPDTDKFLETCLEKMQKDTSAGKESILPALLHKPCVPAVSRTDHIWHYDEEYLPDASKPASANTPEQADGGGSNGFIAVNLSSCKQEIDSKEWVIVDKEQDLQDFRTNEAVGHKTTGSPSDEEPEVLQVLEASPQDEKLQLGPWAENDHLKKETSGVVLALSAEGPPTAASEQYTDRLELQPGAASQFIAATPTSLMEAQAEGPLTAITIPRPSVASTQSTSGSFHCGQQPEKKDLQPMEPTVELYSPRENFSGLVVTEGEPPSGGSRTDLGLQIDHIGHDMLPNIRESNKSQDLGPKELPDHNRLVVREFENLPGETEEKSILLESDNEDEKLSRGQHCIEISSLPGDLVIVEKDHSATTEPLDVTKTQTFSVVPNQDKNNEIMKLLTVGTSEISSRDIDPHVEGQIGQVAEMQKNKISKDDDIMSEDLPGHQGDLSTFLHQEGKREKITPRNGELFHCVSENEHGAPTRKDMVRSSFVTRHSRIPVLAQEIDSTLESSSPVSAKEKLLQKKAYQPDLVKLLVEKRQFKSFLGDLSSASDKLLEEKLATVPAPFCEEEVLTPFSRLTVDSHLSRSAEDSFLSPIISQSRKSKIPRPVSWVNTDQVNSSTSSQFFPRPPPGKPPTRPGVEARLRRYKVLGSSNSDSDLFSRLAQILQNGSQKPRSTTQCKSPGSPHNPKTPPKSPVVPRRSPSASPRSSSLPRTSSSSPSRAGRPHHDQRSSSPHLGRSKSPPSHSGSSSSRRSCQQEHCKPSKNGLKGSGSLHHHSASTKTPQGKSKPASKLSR
pIC50: −log10 of the molar value.
measurementLabel: pIC50

Oc1ccc(-c2nc(-c3ccncc3)c(-c3ccc(F)cc3)[nH]2)cc1 [SB202190] | 5.26

---

- measuredTarget: ERK1 (Homo sapiens, UniProt P27361)
- Sequence (P27361 whole entry): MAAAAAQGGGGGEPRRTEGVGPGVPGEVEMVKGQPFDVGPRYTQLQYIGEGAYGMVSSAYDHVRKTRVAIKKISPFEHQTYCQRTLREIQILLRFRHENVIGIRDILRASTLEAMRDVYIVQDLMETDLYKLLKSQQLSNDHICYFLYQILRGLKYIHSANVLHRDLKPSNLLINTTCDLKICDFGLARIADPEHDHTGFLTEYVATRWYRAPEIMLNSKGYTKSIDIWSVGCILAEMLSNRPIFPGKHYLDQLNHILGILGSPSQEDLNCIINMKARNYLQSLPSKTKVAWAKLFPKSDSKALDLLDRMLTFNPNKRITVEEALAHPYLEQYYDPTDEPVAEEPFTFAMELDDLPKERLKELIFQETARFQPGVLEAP
measurementLabel: IC50 (nM)

O=C(Nc1ccc2[nH]nc(-c3ccncc3)c2c1)[C@@H]1CCN(CC(=O)N2CCN(c3ccc(-c4ncccn4)cc3)CC2)C1 | 9.34

---

- measuredTarget: Aurora A (Homo sapiens)
- Construct: gene AURKA
- Sequence (O14965 whole entry): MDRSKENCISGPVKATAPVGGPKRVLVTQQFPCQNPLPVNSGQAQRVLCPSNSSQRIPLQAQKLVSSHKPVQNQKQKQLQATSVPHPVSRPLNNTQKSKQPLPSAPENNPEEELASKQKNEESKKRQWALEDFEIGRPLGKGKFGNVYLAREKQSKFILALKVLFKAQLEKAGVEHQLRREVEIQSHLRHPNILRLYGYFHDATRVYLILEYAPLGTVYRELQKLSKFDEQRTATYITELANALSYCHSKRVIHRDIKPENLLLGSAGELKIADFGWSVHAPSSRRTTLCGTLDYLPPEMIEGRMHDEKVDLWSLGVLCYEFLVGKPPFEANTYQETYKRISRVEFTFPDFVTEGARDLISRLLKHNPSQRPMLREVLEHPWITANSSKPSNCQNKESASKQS
- assayMethodText: radiometric […]-ATP kinase assay with recombinant kinase at Km ATP ([…])
- Type: biochemical
pIC50: −log10 of the molar value.
measurementLabel: pIC50

COc1cc(N2CCN(C)CC2)c(C)cc1Nc1ncc(Br)c(Nc2cccnc2N(C)C)n1 [TP-5801] | 5.27

---

- measuredTarget: COT1/MAP3K8 (Homo sapiens)
- Sequence (P41279 whole entry): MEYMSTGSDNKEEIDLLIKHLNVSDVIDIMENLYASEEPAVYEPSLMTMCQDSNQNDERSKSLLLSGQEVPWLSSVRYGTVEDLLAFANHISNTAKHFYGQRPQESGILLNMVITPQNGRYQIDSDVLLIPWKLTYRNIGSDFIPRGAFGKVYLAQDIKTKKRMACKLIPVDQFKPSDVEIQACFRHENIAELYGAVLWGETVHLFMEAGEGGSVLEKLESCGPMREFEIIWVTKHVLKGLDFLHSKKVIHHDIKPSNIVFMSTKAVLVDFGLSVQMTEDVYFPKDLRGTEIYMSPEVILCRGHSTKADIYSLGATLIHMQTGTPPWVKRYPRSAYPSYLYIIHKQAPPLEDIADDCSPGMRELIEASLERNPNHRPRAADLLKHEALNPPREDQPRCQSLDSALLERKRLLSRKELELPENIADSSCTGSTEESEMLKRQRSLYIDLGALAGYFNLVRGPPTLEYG
- assayMethodText: biochemical
measurementLabel: IC50

Cn1cc(C2=C(c3cn(CCCSC(=N)N)c4ccccc34)C(=O)NC2=O)c2ccccc21 | 10.2 µM

---

- measuredTarget: TTBK1 (Homo sapiens)
- assayMethodText: biochemical
- Set-up: Reaction Biology kinase panel, control compounds in 10-dose IC50 mode at Km ATP
- experimentalConditions: control compound, Km ATP; read-out: IC50 (M) Control Cmpd
measurementLabel: IC50 (M)

Oc1ccc(-c2nc(-c3ccncc3)c(-c3ccc(F)cc3)[nH]2)cc1 | 1.31e-05
